- experimentalSystem: Biotinylated RpoS (S. Typhimurium ATCC 14028S, UniProt D0ZVL4 1-330, biotin (EZ-Link-Biotin; sites not stated))
- Sequence (D0ZVL4 whole entry): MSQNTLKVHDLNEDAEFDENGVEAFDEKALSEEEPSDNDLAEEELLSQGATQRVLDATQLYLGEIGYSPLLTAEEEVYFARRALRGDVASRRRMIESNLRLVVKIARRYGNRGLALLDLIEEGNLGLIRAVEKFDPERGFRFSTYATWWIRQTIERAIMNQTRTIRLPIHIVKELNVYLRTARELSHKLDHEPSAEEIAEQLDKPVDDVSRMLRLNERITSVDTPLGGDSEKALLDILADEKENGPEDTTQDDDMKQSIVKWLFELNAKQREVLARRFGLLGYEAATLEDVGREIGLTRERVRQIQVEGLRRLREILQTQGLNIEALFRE
- testName: BLI
recordedEndpoint: pKd
Recall that pKd is obtained by taking minus log10 of the concentration measured in molar.

// query Data request, read-out pKd, for MicN (purified, His-tag cleaved) (natural protein, S. Typhimurium ATCC 14028S) MKEGFYWIQHNGRVQVAYYTHGVTEDLETGQTIIGVWHLTQGDDICHNGEAEILAGPLEPPI
// result 7.36

All figures here come from paper PMC12549904.
